# Measured on: MDMX (Homo sapiens)
# Sequence (O15151 1-490): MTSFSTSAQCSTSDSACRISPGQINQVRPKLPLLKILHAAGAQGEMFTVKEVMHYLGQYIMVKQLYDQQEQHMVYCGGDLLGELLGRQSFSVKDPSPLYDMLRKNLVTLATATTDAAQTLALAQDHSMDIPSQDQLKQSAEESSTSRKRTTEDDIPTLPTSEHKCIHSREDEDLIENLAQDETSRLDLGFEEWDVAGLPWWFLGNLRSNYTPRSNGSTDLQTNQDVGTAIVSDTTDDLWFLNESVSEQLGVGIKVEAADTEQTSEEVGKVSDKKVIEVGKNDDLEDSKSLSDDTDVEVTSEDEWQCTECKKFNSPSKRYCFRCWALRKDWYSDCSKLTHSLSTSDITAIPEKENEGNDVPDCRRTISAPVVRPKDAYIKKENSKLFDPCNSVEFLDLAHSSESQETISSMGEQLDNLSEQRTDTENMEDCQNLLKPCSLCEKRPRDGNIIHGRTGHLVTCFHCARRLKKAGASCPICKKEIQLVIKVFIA
# Assay remarks: fluorescence polarization p53 peptide exclusion assay, Mdmx
# Run parameters: ND = compound does not noticeably block interaction with p53 peptide
Parameter measured: Ki (µM)

>>> reported("CCOc1cc(/C=C2\\C(=O)N(c3ccccc3)N=C2C)cc(Cl)c1OCC(=O)OC")
8.07
